The measurements presented in this section are drawn from the FLAb antibody collection (doi:10.7554/elife.23156).

B1: scFv; the commonest letter at each place (parent)
chain 1: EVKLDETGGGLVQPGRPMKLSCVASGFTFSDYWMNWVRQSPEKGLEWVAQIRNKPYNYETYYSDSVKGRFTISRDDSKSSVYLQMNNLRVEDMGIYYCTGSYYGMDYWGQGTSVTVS
chain 2: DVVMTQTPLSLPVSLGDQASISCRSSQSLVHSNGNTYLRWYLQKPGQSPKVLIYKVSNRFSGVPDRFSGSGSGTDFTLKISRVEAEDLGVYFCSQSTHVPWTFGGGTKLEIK

Variants of: B1
Test: yeast surface expression (ratio to wild type); higher = more expressed
Settings: format: scFv 4-4-20, heavy + light
Readout Name: yeast surface expression
// response body must contain only the number

>  <Mutation Code>
chain 1 G100K D106S

>  <Recorded Value>
0.303

$$$$
>  <Mutation Code>
chain 1 T28R D31L W33I

>  <Recorded Value>
0.441

$$$$
>  <Mutation Code>
chain 1 Y107I G109K

>  <Recorded Value>
0.234

$$$$
>  <Mutation Code>
chain 1 S101N Y102M

>  <Recorded Value>
0.944

$$$$

Task: Reported yeast surface expression for chain 1 W36D V37H : what is it?
Output: 0.21

Task: chain 1 W108P G109N , same question.
Output: 0.473
